Reported Rating values for the following compounds.
# Tested on: C. elegans
# procedure-details: Efficacy against nematodes (C. elegans motility rating)
# Set-up: key: 0: no effect; 7: reduced movement in 24 h; 8: dead in 24 h; 9: dead in 4 h
# experimental-parameters: dose 100 ppm, observations at 4 h and 24 h postimmersion
# Description: Evaluation of the Efficacy of a 3-Aryl-4-Hydroxyfuranone Against Nematodes In this evaluation, cultures of C. elegans are maintained on E. coli lawns on Nematode Growth Agar at 20° C. New cultures are established twice a week. Nematodes for testing are rinsed from plates using M9 Buffer. […] One μL of this solution is added to each well of a 96 well plate. […]
Give the value as a plain number.

Some compounds with recorded Rating:
> print(dat)
                                   compound  measurement
1  N#Cc1cccc(C2=C(O)C(=Cc3ccc(C(F)(F)F)cc3)OC2=O)c1 (mixture of isomers)            9
2  O=C1OC(=Cc2ccccc2C(F)(F)F)C(O)=C1c1ccc(Cl)cc1 (mixture of isomers)            9
3  N#Cc1ccc(-c2ccc(C=C3OC(=O)C(c4ccc(F)cc4)=C3O)cc2)cc1 (mixture of isomers)            9

Recorded Rating of N#Cc1ccc(/C=C2\OC(=O)C(c3ccc(Cl)s3)=C2O)cc1 , please.
9

Form field: reported Rating of O=C1OC(=Cc2ccc(OCC3CC3)cc2)C(O)=C1c1ccc(OC(F)(F)F)cc1 (mixture of isomers)
0

Any idea what its Rating is? The compound is N#Cc1ccc(C2=C(O)C(=Cc3ccc(C(F)(F)F)cc3)OC2=O)cc1 (mixture of isomers)
9

For the compound shown here, N#Cc1ccc(C2=C(O)C(=Cc3ccc(OC(F)(F)C(F)F)cc3)OC2=O)cc1 (mixture of isomers) , give the reported Rating.
9

Fill in the blank: the reported Rating of O=C1OC(=Cc2ccc(-c3ccc(Cl)cc3)cc2)C(O)=C1c1cccc(Cl)c1 (mixture of isomers) is ____.
9

Request the reported Rating associated with O=C1OC(=Cc2ccc(Cl)s2)C(O)=C1c1ccc(Cl)s1
9

Which Rating is listed for Cc1nc(C=C2OC(=O)C(c3ccc(OC(F)(F)F)cc3)=C2O)c[nH]1 (mixture of isomers) ?
0

Would you mind telling me what Rating value was observed for O=C1OC(=Cc2ccc(F)c(F)c2)C(O)=C1c1ccc(OC(F)(F)F)cc1 (mixture of isomers) ?
9

# Rating lookup, item O=C1OC(=Cc2cccnc2)C(O)=C1c1ccc(OC(F)(F)F)cc1 (mixture of isomers)
0

Form field: reported Rating of O=C1OC(=Cc2cnccc2-c2cccc(Cl)c2)C(O)=C1c1ccc(OC(F)(F)F)cc1 (mixture of isomers)
9

Name the reported Rating value associated with the compound Cc1ccccc1-n1ncc(C=C2OC(=O)C(c3ccc(OC(F)(F)F)cc3)=C2O)c1C (mixture of isomers)
0
